// reported IC50 per item
# Experimental target: human IDO1 (Homo sapiens, UniProt P14902)
# Sequence (P14902 whole entry): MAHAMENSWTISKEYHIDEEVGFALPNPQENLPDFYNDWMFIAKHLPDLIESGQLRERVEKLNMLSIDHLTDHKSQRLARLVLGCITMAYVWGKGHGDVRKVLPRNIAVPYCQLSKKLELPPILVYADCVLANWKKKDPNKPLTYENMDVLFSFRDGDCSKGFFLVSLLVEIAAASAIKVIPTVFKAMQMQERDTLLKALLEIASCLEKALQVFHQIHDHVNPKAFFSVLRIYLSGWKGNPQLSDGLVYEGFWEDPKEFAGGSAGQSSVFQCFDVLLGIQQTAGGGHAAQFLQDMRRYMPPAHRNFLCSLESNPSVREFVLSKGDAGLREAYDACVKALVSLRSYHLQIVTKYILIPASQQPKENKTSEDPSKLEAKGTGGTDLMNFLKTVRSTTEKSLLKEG
# Assay comment: Assessment of human IDO-1 inhibitory activity in HEK cells (human IDO1/HEK293 cells, kynurenine read-out with Ehrlich reagent, absorbance 490 nm)
# Assay type: cell-based
# Parameters: expressed in transfected cells
# Test parameters: HEK Human IDO-1 cellular assay
# Experimental: Exemplary compounds were tested for inhibition of IDO activity. Assessment of Human IDO-1 Inhibitory Activity in HEK Cells HEK293 cells were transfected with a pCDNA-based mammalian expression vector harboring human IDO1 cDNA (NM 002164.2) by electroporation. […] The compound treatments were stopped by adding trichloroacetic acid (Sigma-Aldrich) to a final concentration at 0.2%. […] The absorbance at 490 nm was measured on Envision plate reader. […]

Enquiry: Recorded IC50 for CC[C@@H](CC(=O)O)c1ccc(N(CC)C2CCOCC2)c(NC(=O)Nc2ccc3c(c2)CS(=O)(=O)C3)c1 (single isomer, unassigned) with human IDO1 (Homo sapiens, UniProt P14902), please?
Return: > 50 nM

Enquiry: Then what about the compound CCC(CC(=O)O)c1cc(F)c(N(CC(C)C)CC(C)C)c(Nc2ccc(F)cc2)c1 (single isomer, unassigned) ?
Return: < 5 nM

Enquiry: Now give it for CC[C@H](CC(=O)O)c1ccc(N(CC)C2CCOCC2)c(NC(=O)Nc2ccc(OC)cc2)c1 (single isomer, unassigned) too.
Return: < 50 nM

Enquiry: Try the compound COCC(CC(=O)O)c1ccc(N(CC(C)C)C2CCCCC2)c(NC(=O)Cc2cc(C)on2)c1 (single isomer, unassigned)
Return: > 50 nM

Enquiry: // query: CCOc1ccc(NC(=O)Nc2cc(C(CC)CC(=O)O)ccc2N2CCC[C@H]2C(C)(C)O)cc1 (single isomer, unassigned)
Return: > 50 nM

Enquiry: Param item: CCOc1ccc(NC(=O)Nc2cc(C(CC)CC(=O)O)c(F)cc2N(CC(C)C)CC(C)C)cc1 (single isomer, unassigned) [Example 1132]
Return: < 5 nM

---

# Experimental target: human IDO1 (Homo sapiens)
# Assay comment: Assessment of human IDO-1 inhibitory activity in HEK cells (human IDO1/HEK293 cells, kynurenine read-out with Ehrlich reagent, absorbance 490 nm)
# Type: cell-based
# Design: expressed in transfected cells
# Test parameters: HEK Human IDO-1 cellular assay
# Experimental: Exemplary compounds were tested for inhibition of IDO activity. Assessment of Human IDO-1 Inhibitory Activity in HEK Cells HEK293 cells were transfected with a pCDNA-based mammalian expression vector harboring human IDO1 cDNA (NM 002164.2) by electroporation. […] The compound treatments were stopped by adding trichloroacetic acid (Sigma-Aldrich) to a final concentration at 0.2%. […] The absorbance at 490 nm was measured on Envision plate reader. […]
Measured quantity: IC50

In the examples that follow, each entry is paired with its recorded IC50.
>  <Molecule>
COCCC(CC(=O)O)c1ccc(N(CC(C)C)C2CCCCC2)c(NC(=O)Nc2ccc(C)cc2)c1 (racemic) [Example 1003]

>  <Readout value>
< 5 nM

$$$$
>  <Molecule>
CCC(CC(=O)O)c1cc(F)c(N(CC(C)C)CC(C)C)c(NC(=O)Nc2ccc(C)c(F)c2)c1 (racemic) [Example 974]

>  <Readout value>
< 50 nM

$$$$
>  <Molecule>
CC[C@H](CC(=O)O)c1ccc(N(CC(C)(C)O)C2CCOCC2)c(Nc2ccc3c(c2)OC(F)(F)O3)c1 (single isomer, unassigned) [Example 204]

>  <Readout value>
< 5 nM

$$$$
>  <Molecule>
CC(CC(=O)O)c1ccc(N2C[C@@H](C)O[C@@H](C)C2)c(Nc2ccc(Cl)cc2)c1 (single isomer, unassigned) [Example 739]

>  <Readout value>
> 50 nM

$$$$
>  <Molecule>
CCN(c1ccc(C(C)CC(=O)O)cc1Nc1ccc(C#N)cc1)C1CCOCC1 (single isomer, unassigned) [Example 613]

>  <Readout value>
< 5 nM

$$$$

Enquiry: What value of IC50 has been recorded for this entry: CCC(CC(=O)O)c1cc(NC(=O)Nc2ccc(C)cc2F)c(N(CC(C)C)C2CCCCC2)cc1F (racemic) [Example 1119]
Return: < 5 nM

FYI, the data here is from patent US9790169B2.
